Data origin: patent US5618812A

Target: CCK-A (Rattus norvegicus)
Experiment: biochemical
Type: binding
Settings: rat pancreas (CCK-A), 125I-CCK; read-out: CCK RECEPTOR BINDING RESULTS IC50 125I-CCK Pancreas
Structures can show the parent of a compound that is named as a salt.
Catalogue of pIC50 values
Kindly note that pIC50 refers to -log10 of the concentration in mol/L and answer with the value alone.

Sample answers from the record:
                                   molecule  value_reported
0  Cc1cccc(NC(=O)NC2N=C(N(C)C3CCCCC3)c3ccccc3N(C)C2=O)c1 (single isomer, unassigned; (+)) [Example 65, Hydrochloride]            6.86
1  CCCN1C(=O)C(NC(=O)Nc2cccc(C)c2)N=C(N2CCC(C)CC2)c2ccccc21 (single isomer, unassigned) [18 (enantiomer A)]            6.12
2  Cc1cncc(NC(=O)NC2N=C(N(C)C3CCCCCC3)c3ccccc3N(C)C2=O)c1 (racemic)            6.08

Now for another entry.
Inquiry: Complete the entry with pIC50 for Cc1cccc(NC(=O)NC2N=C(N3C[C@@H](C)O[C@@H](C)C3)c3ccccc3N(C)C2=O)c1 (stereo partly shown)
Reply text: 5.58

====

Target: CCK-A (Rattus norvegicus, UniProt P30551)
Assay: biochemical
Type: binding
Conditions: rat pancreas (CCK-A), 125I-CCK; read-out: CCK RECEPTOR BINDING RESULTS IC50 125I-CCK Pancreas
reported property: pIC50
Kindly note that pIC50 refers to -log10 of the concentration in mol/L and answer with the value alone.

>>> print(df.to_string())
                                   compound  value_reported
0  CCCN(CCC)C1=NC(NC(=O)Nc2cccc(C)c2)C(=O)N(C)c2ccccc21 (racemic)            6.50

Inquiry: Complete the entry with pIC50 for Cc1cccc(NC(=O)NC2N=C(N3CCC(C(F)(F)F)CC3)c3ccccc3N(C)C2=O)c1 (single isomer, unassigned) [20 (enantiomer B)]
Reply text: 7.40

====

Molecular target: CCK-A (Rattus norvegicus, UniProt P30551)
Sequence (P30551 1-444): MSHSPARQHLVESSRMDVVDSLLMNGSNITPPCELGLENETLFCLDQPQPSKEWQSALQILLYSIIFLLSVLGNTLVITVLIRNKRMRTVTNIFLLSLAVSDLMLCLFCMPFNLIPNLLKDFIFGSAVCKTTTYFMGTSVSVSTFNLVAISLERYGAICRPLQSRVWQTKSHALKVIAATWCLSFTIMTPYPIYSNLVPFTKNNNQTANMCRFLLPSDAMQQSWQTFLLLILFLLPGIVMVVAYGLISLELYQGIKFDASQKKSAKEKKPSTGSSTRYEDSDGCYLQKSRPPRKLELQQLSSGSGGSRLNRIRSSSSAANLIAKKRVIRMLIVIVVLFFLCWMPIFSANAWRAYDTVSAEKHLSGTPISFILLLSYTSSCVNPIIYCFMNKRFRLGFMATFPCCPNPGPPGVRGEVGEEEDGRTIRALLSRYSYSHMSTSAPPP
Experiment: biochemical
Assay type: binding
Details: rat pancreas (CCK-A), 125I-CCK; read-out: CCK RECEPTOR BINDING RESULTS IC50 125I-CCK Pancreas
Catalogue of IC50 values

Sample answers from the record:
                                   compound  value_reported
0  Cc1cccc(NC(=O)NC2N=C(N3CCC(C)(C)CC3)c3ccccc3N(CC(F)(F)F)C2=O)c1 (single isomer, unassigned) [28 (enantiomer B)]         3.97 nM
1  COC1CCN(C2=NC(NC(=O)Nc3cccc(C)c3)C(=O)N(C)c3ccccc32)CC1 (single isomer, unassigned) [14 (enantiomer B)]         11.4 nM

Now for another entry.
Inquiry: Complete the entry with IC50 for CN1C(=O)C(NC(=O)Nc2ccc3c(c2)CCC3)N=C(N2CCC(C)(C)CC2)c2ccccc21 (single isomer, unassigned) [5 (enantiomer B)]
Reply text: 7.8 nM

====

Target: CCK-A (Rattus norvegicus)
Assay: biochemical
Type: binding
Settings: read-out: CCK RECEPTOR BINDING RESULTS IC50 125I-CCK Pancreas
Counter-ions that a name gives are not always drawn.
Catalogue of IC50 values
Quick note: give the figure in nM, leave out the unit.

Sample answers from the record:
compound	units label	IC50
Cc1cccc(NC(=O)NC2N=C(N3C[C@H]4CCCC[C@H]4C3)c3ccccc3N(C)C2=O)c1 (single isomer, unassigned; (-)) [Example 58, hydrochloride]	nM	2260
Cc1cccc(NC(=O)NC2N=C(N3CC4CCC(C4)C3)c3ccccc3N(C)C2=O)c1 (single isomer, unassigned; (+)) [Example 40, Hydrochloride]	nM	8.8
Cc1cccc(NC(=O)NC2N=C(N3C[C@H]4CCCC[C@H]4C3)c3ccccc3N(C)C2=O)c1 (single isomer, unassigned; (+)) [Example 59, hydrochloride]	nM	9.7

Now for another entry.
Inquiry: Complete the entry with IC50 for Cc1cccc(NC(=O)NC2N=C(N3CC4CCC(C4)C3)c3ccccc3N(C)C2=O)c1 (single isomer, unassigned; (-)) [Example 39, Hydrochloride]
Reply text: 4010

====

Target: CCK-B (Cavia porcellus, UniProt H0VZC5)
Construct: guinea pig brain (CCK-B); from tissue; host or cells: guinea pig brain
Sequence (H0VZC5 1-426): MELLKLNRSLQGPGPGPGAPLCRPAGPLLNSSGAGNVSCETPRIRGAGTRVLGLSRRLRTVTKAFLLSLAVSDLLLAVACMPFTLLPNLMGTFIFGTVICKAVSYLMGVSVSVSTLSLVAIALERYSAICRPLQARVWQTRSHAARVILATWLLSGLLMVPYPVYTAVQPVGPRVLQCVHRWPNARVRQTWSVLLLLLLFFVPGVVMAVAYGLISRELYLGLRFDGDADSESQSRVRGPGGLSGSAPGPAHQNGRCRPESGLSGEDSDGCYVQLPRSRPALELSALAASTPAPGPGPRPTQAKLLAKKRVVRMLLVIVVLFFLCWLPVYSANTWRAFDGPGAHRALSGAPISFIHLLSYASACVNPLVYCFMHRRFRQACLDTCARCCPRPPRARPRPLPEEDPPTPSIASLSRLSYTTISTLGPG
Test: displacement of specific 125I-CCK from guinea pig brain (CCK-B receptor binding)
Conditions: read-out: CCK RECEPTOR BINDING RESULTS IC50 125I-CCK Brain
Experimental: The CCK-A and CCK-B antagonising activity of the compounds described herein was evaluated using the assays described in published European patent application no. 0514133. The method essentially involves determining the concentration of the test compound required to displace 50% of the specific ^125 I-CCK from rat pancreas (CCK-A) or guinea pig brain (CCK-B). The data in Table 1 were obtained for compounds of the Examples.
Structures can show the parent of a compound that is named as a salt.
reported property: IC50 (nM)
Quick note: give the figure in nM, leave out the unit.

Sample answers from the record:
>>> df
                                   compound  value_reported
0  Cc1cccc(NC(=O)NC2N=C(N(C)C3CCCCCC3)c3ccccc3N(C)C2=O)c1 (single isomer, unassigned; (-)) [Example 67, Hydrochloride]             0.1
1  CCCN1C(=O)C(NC(=O)Nc2cccc(C)c2)N=C(N(C)C2CCCCC2)c2ccccc21 (single isomer, unassigned; (-)) [Example 61]            0.22

Now for another entry.
Inquiry: Complete the entry with IC50 for CN1C(=O)C(NC(=O)c2cc3ccccc3[nH]2)N=C(N2CC3CCC(CC3)C2)c2ccccc21 (racemic) [Example 87]
Reply text: 509

====

Biological target: CCK-B (Cavia porcellus, UniProt H0VZC5)
Construct: guinea pig brain (CCK-B); from tissue; host or cells: guinea pig brain
Experiment: displacement of specific 125I-CCK from guinea pig brain (CCK-B receptor binding)
Details: read-out: CCK RECEPTOR BINDING RESULTS IC50 125I-CCK Brain
Where a name gives a salt, the structure may show the parent alone.
reported property: pIC50
Kindly note that pIC50 refers to -log10 of the concentration in mol/L and answer with the value alone.

Sample answers from the record:
>>> df
                                   compound  reported_property  value_reported
0  CC(C)CN1C(=O)C(NC(=O)[C@@H]2Cc3ccccc3N2)N=C(N2CCCCCC2)c2ccccc21 (stereo partly shown)              pIC50            6.46
1  Cc1cccc(NC(=O)NC2N=C(N(Cc3ccccc3)C3CCCCC3)c3ccccc3N(C)C2=O)c1 (racemic)              pIC50            7.49
2  CC(C)CN1C(=O)C(NC(=O)Cc2c[nH]c3ccccc23)N=C(N2CCCCCC2)c2ccccc21 (racemic)              pIC50            6.92
3  Cc1cccc(NC(=O)NC2N=C(N3[C@H](C)C[C@H](C)C[C@@H]3C)c3ccccc3N(C)C2=O)c1 (single isomer, unassigned) [24 (enantiomer A)]              pIC50            9.03
4  CN1C(=O)C(NC(=O)Nc2ccc3c(c2)CCC3)N=C(N(C)C2CCCCC2)c2ccccc21 (racemic)              pIC50            9.33
5  Cc1cccc(NC(=O)NC2N=C(N3CCCCC3(C)C)c3ccccc3N(C)C2=O)c1 (single isomer, unassigned) [22 (enantiomer A)]              pIC50            7.48
6  Cc1cccc(NC(=O)NC2N=C(N3C[C@H]4CCCC[C@H]4C3)c3ccccc3N(C)C2=O)c1 (relative stereo) [Example 57]              pIC50            8.34
7  Cc1cccc(NC(=O)NC2N=C(N3CC4CCC(C4)C3)c3ccccc3N(C)C2=O)c1 (single isomer, unassigned; (-)) [Example 39, Hydrochloride]              pIC50            9.77

Inquiry: Complete the entry with pIC50 for CC1CCN(C2=NC(NC(=O)Nc3cccc(N4CCN(C)CC4)c3)C(=O)N(C)c3ccccc32)CC1 (racemic)
Reply text: 6.83

Inquiry: Complete the entry with pIC50 for CC1CCN(C2=NC(NC(=O)Nc3ccc4c(c3)CCC4)C(=O)N(C)c3ccccc32)CC1 (single isomer, unassigned; (-)) [Example 12, hydrochloride]
Reply text: 9.55
